tgt: CDK4/cyclin D1 (Homo sapiens (Human), UniProt P11802)
Sequence (P11802 whole entry): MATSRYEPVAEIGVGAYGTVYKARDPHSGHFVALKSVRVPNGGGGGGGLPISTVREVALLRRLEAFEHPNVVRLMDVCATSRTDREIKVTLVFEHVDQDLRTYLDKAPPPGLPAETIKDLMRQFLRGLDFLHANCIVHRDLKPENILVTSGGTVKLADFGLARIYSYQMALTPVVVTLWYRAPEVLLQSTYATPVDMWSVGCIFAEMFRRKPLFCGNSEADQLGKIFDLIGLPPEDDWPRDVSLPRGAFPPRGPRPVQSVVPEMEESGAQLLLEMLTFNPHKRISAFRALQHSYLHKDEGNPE
Sequence (P24385 whole entry partner): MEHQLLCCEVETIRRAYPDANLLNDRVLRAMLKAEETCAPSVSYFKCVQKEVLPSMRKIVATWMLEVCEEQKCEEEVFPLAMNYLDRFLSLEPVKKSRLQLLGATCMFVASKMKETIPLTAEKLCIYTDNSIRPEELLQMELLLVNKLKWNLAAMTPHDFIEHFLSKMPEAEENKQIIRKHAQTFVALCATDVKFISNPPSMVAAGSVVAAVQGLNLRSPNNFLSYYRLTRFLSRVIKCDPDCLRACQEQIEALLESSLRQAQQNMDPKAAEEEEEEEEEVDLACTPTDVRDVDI
experiment: CDK4/Cyclin D1 enzymatic activity assay (Lance TR-FRET)
Assay type: biochemical
conditionNotes: Table 2; 3 μM ATP; read-out: CDK4
pIC50: −log10 of the molar value.
readoutType: pIC50

// solved cases for pIC50 follow
{"columns": ["compound", "tgt", "pIC50"],
 "data": [
  ["CN(C)C(=O)c1cc2cnc(Nc3ccc(N4CCN(CCC#N)CC4)cn3)nc2n1C1CCCC1", "CDK4/cyclin D1 (Homo sapiens (Human), UniProt P11802)", "7.00 to 8.00"],
  ["CN(C)C(=O)c1cc2cnc(Nc3ccc(N4CCC(CCO)CC4)cn3)nc2n1C1CCCC1", "CDK4/cyclin D1 (Homo sapiens (Human), UniProt P11802)", "7.00 to 8.00"],
  ["CN(C)C(=O)c1cc2cnc(Nc3ccc(N4CCN(CCO)CC4)cn3)nc2n1C1CCCC1", "CDK4/cyclin D1 (Homo sapiens (Human), UniProt P11802)", "7.00 to 8.00"],
  ["C[C@H]1CN(c2ccc(Nc3ncc4cc(C(=O)N(C)C)n(C5CCCC5)c4n3)nc2)CCN1CCO", "CDK4/cyclin D1 (Homo sapiens (Human), UniProt P11802)", "7.00 to 8.00"],
  ["CN(C)C(=O)c1cc2cnc(Nc3ccc(N4CCC(N)C4)cn3)nc2n1C1CCCC1 (racemic)", "CDK4/cyclin D1 (Homo sapiens (Human), UniProt P11802)", "7.00 to 8.00"],
  ["CC1CN(Cc2ccc(Nc3ncc4cc(C(=O)N(C)C)n(C5CCCC5)c4n3)nc2)CCN1 (stereo not drawn)", "CDK4/cyclin D1 (Homo sapiens (Human), UniProt P11802)", "7.00 to 8.00"],
  ["CN(C)C(=O)c1cc2cnc(Nc3ccc(N4CCN(C[C@H](O)CO)CC4)cn3)nc2n1C1CCCC1", "CDK4/cyclin D1 (Homo sapiens (Human), UniProt P11802)", "7.00 to 8.00"],
  ["CN(C)C(=O)c1cc2cnc(Nc3ccc(N4CCNCC4)nn3)nc2n1C1CCCC1", "CDK4/cyclin D1 (Homo sapiens (Human), UniProt P11802)", "7.00 to 8.00"]
]}

query: Could you tell me which pIC50 is on file for CN(C)C(=O)c1cc2cnc(Nc3ccc(N4CCN(C(=O)C5CCCCC5)CC4)cn3)nc2n1C1CCCC1 ?
result: 7.00 to 8.00

query: Would you kindly share the measured pIC50 for CN(C)C(=O)c1cc2cnc(Nc3ccc(CN4CC(O)C4)cn3)nc2n1C1CCCC1 [Example 10A] ?
result: 7.00 to 8.00

query: Which pIC50 value belongs to CN(C)C(=O)c1cc2cnc(Nc3ccc(CN4CCN(C)C(=O)C4)cn3)nc2n1C1CCCC1 ?
result: 6.00 to 7.00

query: Report pIC50 for C[C@H]1CN(c2ccc(Nc3ncc4cc(C(=O)N(C)C)n(C5CCCC5)c4n3)nc2)CCN1C(=O)OC(C)(C)C please.
result: 6.00 to 7.00

query: Any idea what its pIC50 is? The compound is CN(C)C(=O)c1cc2cnc(Nc3ccc(CN4CCC(O)CC4)cn3)nc2n1C1CCCC1
result: 7.00 to 8.00

query: // lookup pIC50 for CN(C)C(=O)c1cc2cnc(Nc3ccc(N4CCN(CCF)CC4)cn3)nc2n1C1CCCC1
result: 7.00 to 8.00

query: // returns reported pIC50 for input CN(C)C(=O)c1cc2cnc(Nc3ccc(N4CCCNCC4)cn3)nc2n1C1CCCC1
result: 7.00 to 8.00

Cited source: patent US8962630B2
